- Test system: P-glycoprotein (P-gp, MDR1)
- assay.text: in vitro
- conditions.used: dog, MDCK-MDR1, Papp B-A Sample - 01, MDCK-MDR1, B-A, 5 μM, replicate 01
readout: Papp B→A (×10⁻⁶ cm/s)

compound: COCCc1ccc(OCC(O)CNC(C)C)cc1 (stereo not shown) [Metoprolol, metoprolol]
observed.result: 20.1

###

- Tested on: P-glycoprotein (P-gp, MDR1)
- assay.text: in vitro
- conditions.used: dog, MDCK-MDR1, Papp A-B Sample - 01, MDCK-MDR1, A-B, 5 μM, replicate 01
readout: Papp A→B

compound: COCCc1ccc(OCC(O)CNC(C)C)cc1 (stereo not shown)
readout: Papp A→B
observed.result: 37.6 ×10⁻⁶ cm/s
